Assignment: determine reported TGI for the given molecules.
Test system: COLO 205 colon
assay-explanation: NCI tumour cell line growth inhibition, 48 h
*1 amine or outer side, *2 acyl side, *3 side chain or, on linkers, in order; H or OH if unused. Where a SMILES comes first, the peptide text is derived from it. CO = O=C([*:1])[*:2]

Bench note, COLO 205 colon: entry C=C1C(C2(C)C=CC(=O)OC3(C)COC(=O)CC32)C(OC=O)C(OC(=O)C(O)C(C)CC)C2(C)C(c3ccoc3)CC(OC(C)=O)C12O (stereo not drawn) , its TGI = > 100 µM

Recorded TGI for O=C1CC(n2cccc2)c2cc(Br)sc21 (stereo not drawn) on COLO 205 colon was > 100 µM

For the molecule CC(C)C(NC(=O)C(CCCN=C(N)N)NC(=O)NC(Cc1ccccc1)C(=O)O)C(=O)NC(C=O)CCCN=C(N)N (stereo not drawn) ({Phe-CO}-Arg-Val-Arg-aldehyde; configuration not given here) , the measured TGI on COLO 205 colon was > 5 µM

The value of TGI recorded for "COc1ccc2c(c1)/C(=C/c1c(-c3ccc(C)cc3)nc3sc(C)cn13)C(=O)N2" when tested on COLO 205 colon reads > 100 µM

Kindly note: COLO 205 colon, "N#Cc1c(N)nc(N2CCOCC2)c(C#N)c1-c1cccc(O)c1" , TGI value reported: > 100 µM

Item: "O=C(Nc1ccc(N=Nc2ccccc2)cc1)Sc1ccccc1C(=O)O" | System: COLO 205 colon | TGI: > 100 µM

Simply: "O=C(CSc1nnc(-c2ccc(N=Cc3ccc(Cl)cc3)cc2)o1)Nc1ccccc1" , COLO 205 colon, TGI = > 100 µM

Record for "CN(C)c1ccc2[nH]c(O)c(C=Nc3ccc(S(N)(=O)=O)cc3)c2c1" under target or system COLO 205 colon: TGI reported as > 25 µM

Let me check: CCOC(=O)C1=C(C)C2C3C(=O)NC(=O)C3C1(C)C1C(=O)NC(=O)C21 (stereo not drawn) , system COLO 205 colon, measured TGI is > 100 µM

Recorded TGI for "Cc1c(C(=O)Nc2ccc(Cl)c(C(F)(F)F)c2)oc2cc(O)ccc2/c1=N\NC(N)=S" on COLO 205 colon was > 100 µM

For C#CCOC(=O)C(N)CS (stereo not drawn) on COLO 205 colon, measured TGI was > 100 µM

# value of TGI, COLO 205 colon, item COC1=CC(C)C2C[C@H]3O[C@H](O)C[C@H]4C(C)C(=O)C(O)C([C@@]2(C)C1=O)[C@@]34C (stereo partly drawn) = > 100 µM

Considering "CCN(CC)/C(=C\Cl)Nc1ccccn1" , its TGI with COLO 205 colon was recorded as > 100 µM

Form: item COCC1OCCN1C (stereo not drawn) ; test system COLO 205 colon; TGI: > 100 µM

I looked up "CC(C)CC(=O)OC[n+]1cccc(-c2c(COC(=O)NC(C)C)c(COC(=O)NC(C)C)c3n2CCC3)c1" and its TGI for COLO 205 colon was > 100 µM

Readout TGI for "Cc1cc(S(=O)(=O)/N=C(\N)n2nc(C)c(C)c2C)c(SCc2ccccc2)cc1Cl" , test system COLO 205 colon, was > 100 µM

The molecule "CC[N+](CC)(CC)Cc1cn(S(=O)(=O)c2ccccc2)c2ccccc12" on COLO 205 colon: TGI was > 100 µM

Record "CO[C@H]1C[C@@H]2CC[C@@H](C)[C@@](O)(O2)C(=O)C(=O)N2CCCC[C@H]2C(=O)O[C@H]([C@H](C)C[C@@H]2CC[C@@H](OC(=O)C(C)(CO)CO)[C@H](OC)C2)CC(=O)[C@H](C)/C=C(\C)[C@@H](O)[C@@H](OC)C(=O)[C@H](C)C[C@H](C)/C=C/C=C/C=C/1C" has COLO 205 colon TGI equal to > 60.4 µM

---

Tested on: SF-539 CNS
assay-explanation: NCI tumour cell line growth inhibition, 48 h
value-type: TGI

Param item: "N=c1oc2cc(O)c(O)cc2cc1C(N)=O" ; param system: SF-539 CNS; output TGI: > 100 µM

Observed TGI on SF-539 CNS, entry Cc1ncc([N+](=O)[O-])n1CC(O)Cn1cnc([N+](=O)[O-])n1 (centres undefined) , equals > 100 µM

Known value: SF-539 CNS TGI of the molecule "CN1CCN(CCCOc2ccc3ncnc(Nc4ccc(Oc5cccc(C(F)(F)F)c5)c(Cl)c4)c3c2)CC1" equals 3 µM

GET /values?item= "C=C1C(=O)O[C@H]2[C@H]1CC/C(COC(=O)N[C@@H](Cc1c[nH]c3ccccc13)C(=O)OC)=C\CC[C@@]1(C)O[C@@H]21" &system= SF-539 CNS returns TGI: 2.92 µM

For "N#Cc1c(C(N)=O)ncn1Cc1ccccc1" on SF-539 CNS, measured TGI was > 100 µM

Value sought: TGI, system SF-539 CNS, item "CCCOc1ccc(/C=C/C2=[N+](CCO)CCO2)cc1" . Result: > 100 µM

Summary line: "O=C(Nc1nc(-c2ccc(Cl)cc2)cs1)c1ccc(O)c(O)c1" , SF-539 CNS, reported TGI = 14.8 µM

Reading of TGI for "CCC(=O)Nc1ccc2c(c1)CN1C(=O)c3ccccc3C1=N2" with SF-539 CNS: > 100 µM

Summary line: "CC(=O)NNc1nc(C)c(C(/C=C/c2ccccc2O)=N/NC(=O)c2ccncc2)s1" , SF-539 CNS, reported TGI = > 100 µM

---

Please provide measured TGI for the entries that follow.
Tested on: XF 498 CNS
assay-explanation: NCI tumour cell line growth inhibition, 48 h

Short answer for "S=C(NCCCCCCNC(=S)Nc1c2ccccc2nc2ccccc12)Nc1c2ccccc2nc2ccccc12" : TGI was > 100 µM

Lab book: TGI of "O=C(CSc1nnc(-c2ccc(N=Cc3ccc(Cl)cc3)cc2)o1)Nc1ccccc1" noted as > 100 µM

Entry "O=C1C(Br)=C(c2ccccc2)C(c2ccccc2)=C1c1ccccc1" ; TGI = 3.65 µM

molecule "CC(C)(C)c1cc(N=NC(=S)NCc2ccccc2)cc(C(C)(C)C)c1O" , TGI observed: > 100 µM

# TGI (molecule: "CCOC(=O)C(=O)Nc1ccc([N+](=O)[O-])cc1C#N" ) is > 100 µM

The molecule listed as CC1C(c2ccccc2)=CCON1c1ccccc1 (stereo not drawn) shows TGI equal to > 100 µM

Sample O=C1CCC(NC(=O)Cc2ccc(O)cc2)C(=O)N1 (stereo not drawn) ; TGI observed: > 2500 µM

The molecule listed as "CN(C)c1cccc(-c2cc(=O)c3cc4c(cc3[nH]2)OCO4)c1" shows TGI equal to 7.24 µM

---

Test system: SF-268 CNS
assay-explanation: NCI tumour cell line growth inhibition, 48 h
value-type: TGI

So for COC(=O)C1=C(C(=O)OC)C(C(=O)c2ccccc2)N2N=C(c3ccc(Cl)cc3)C=CC12 (stereo not drawn) , the logged TGI turned out to be > 100 µM

The compound identified as C[N+]1(C)C2CCC1CC(OC(=O)C(CO)c1ccccc1)C2 (stereo not drawn) registered its TGI at > 100 µM

Measured TGI, "O=[N+]([O-])c1ccccc1/C=C/C=C1c2ccccc2-c2ccccc21" : > 100 µM

---

System: PC-3 prostate
assay-explanation: NCI tumour cell line growth inhibition, 48 h
value-type: TGI

Value of TGI reported for the compound CC(=O)NC(Cc1c[nH]c2ccccc12)C(=O)O (stereo not drawn) is > 100 µM

// sample COC(=O)CC1CN(C(=O)OCc2ccccc2)C(C)(C)O1 (stereo not drawn) , its TGI was > 100 µM

Record "c1cncc(-c2cc(-c3cc(-c4cccnc4)n[nH]3)[nH]n2)c1" . Reported TGI: > 100 µM

---

I'd be grateful if you could share measured TGI for these entries.
System: SK-MEL-2 melanoma
assay-explanation: NCI tumour cell line growth inhibition, 48 h

Entry under test: C=C1C(C2(C)C=CC(=O)OC3(C)COC(=O)CC32)C(OC=O)C(OC(=O)C(O)C(C)CC)C2(C)C(c3ccoc3)CC(OC(C)=O)C12O (stereo not drawn) . Its TGI was > 100 µM

Notebook: "Cn1c(Cc2ccccc2)nc2cc3ccccc3cc21" , TGI read as > 100 µM

Lab book: TGI of "CN=C1Nc2ccccc2C(=S)N2CSC[C@@H]12" noted as > 100 µM

The recorded TGI for entry CCC(C)C(NC(=O)C(CCCCN)NC(=O)C(NC(=O)C(CCC(N)=O)NC(=O)C(CCCNC(=N)N)NC(C)=O)C(C)CC)C(=O)NC(Cc1c[nH]c2ccccc12)C(=O)NC(Cc1ccccc1)C(=O)NC(CCC(N)=O)C(=O)NC(CC(N)=O)C(=O)NC(CCCNC(=N)N)C(=O)NC(CCCNC(=N)N)C(=O)NC(CCSC)C(=O)NC(CCCCN)C(=O)NC(Cc1c[nH]c2ccccc12)C(=O)NC(CCCCN)C(=O)NC(CCCCN)C(N)=O (stereo not drawn) equals > 50 µM

Memo: "Cc1nc2c(s/c(=N\N)n2-c2ccccc2)c(=O)[nH]1" , reported TGI: > 100 µM

// recorded TGI for "COc1cc(/C=C2\C[C@H]3[C@@H]4CC=C5C[C@@H](OC(C)=O)CC[C@]5(C)[C@H]4CC[C@]3(C)[C@H]2OC(C)=O)ccc1OCCCn1ccnc1" : > 50 µM

The value of TGI measured for the compound "CC[N+](CC)(CC)Cc1cn(S(=O)(=O)c2ccccc2)c2ccccc12" turned out to be > 100 µM

Reported TGI for C#CCOC(=O)C(N)CS (stereo not drawn) was > 100 µM

Measured TGI, CC1(C)CC2=NOS3=C2C(=NO3)C1c1ccccn1 (stereo not drawn) : > 100 µM

Documented TGI of "Cc1cc(Nc2nc(N3CCOCC3)nc3ccccc23)n[nH]1" : > 100 µM

response.value for COC1CCC(OS(C)(=O)=O)CO1 (stereo not drawn) (field: TGI) = > 100 µM

TGI reported for this compound "N#Cc1c(N)nc(N2CCOCC2)c(C#N)c1-c1cccc(O)c1" : > 100 µM

Reported TGI ( CC(=O)C1=C(O)C2(O)C(=O)c3c(c(C)c4ccc(C)c(O)c4c3O)CC2C(N)C1=O (stereo not drawn) ) = > 21 µM

TGI reading for Cc1cc(Cl)ccc1NC(=O)/C(CC(=O)CC(c1ccccc1)c1c(O)c2ccccc2oc1=O)=N\O (stereo not drawn) : > 100 µM

So, "O=c1oc2ccccc2c(O)c1C(c1ccc2ccccc2c1)c1c(O)c2ccccc2oc1=O" ? Its TGI was > 100 µM

For record Cc1ccc(-c2cnc(NC3OC(COC(=O)c4ccccc4)C(OC(=O)c4ccccc4)C(OC(=O)c4ccccc4)C3OC(=O)c3ccccc3)s2)cc1 (stereo not drawn) the listed TGI is > 100 µM

Sure, the documented TGI for "CO[C@@]12C[C@@H](CNC(=O)c3cc(Br)c[nH]3)O[C@@H]1NC(=O)N2" is > 100 µM

For this compound ( "COc1c(C(=O)O)cccc1-c1cccc(C(=O)NCCN(CCNC(=O)c2cccc(-c3cccc(C(=O)O)c3OC)c2OC)CCNC(=O)c2cccc(-c3cccc(C(=O)O)c3OC)c2OC)c1OC" ), measured TGI is > 100 µM
